method description: Drug uptake in human HepG2 cells assessed as mean fluorescence intensity at 10 uM measured after 1 hr by flow cytometry analysis (reference value: 2.74)
Assay type: ADME, cell-based
stated conditions: hepg2, 1 h
Just a reminder that ties go to Not satisfied: only Flu intensity strictly below 30 counts as Satisfied.

| compound string | class label |
| --- | --- |
| CCN(CCn1cc(COCCOCCOCCOCCNC(=O)Nc2ccc3c(c2)B(O)OC3)nn1)c1ccc(/C=C/C2=CC(=C(C#N)C#N)c3ccccc3O2)cc1 | Not satisfied |
| CCN(CCn1cc(COCCOCCOCCOCCNC(=O)c2cc(B(O)O)cc([N+](=O)[O-])c2)nn1)c1ccc(/C=C/C2=CC(=C(C#N)C#N)c3ccccc3O2)cc1 | Satisfied |
| CCN(CCn1cc(COCCOCCOCCOCCO)nn1)c1ccc(/C=C/C2=CC(=C(C#N)C#N)c3ccccc3O2)cc1 | Not satisfied |
| CCN(CCn1cc(COCCOCCOCCOCCNC(=O)c2ccc(B(O)O)cc2)nn1)c1ccc(/C=C/C2=CC(=C(C#N)C#N)c3ccccc3O2)cc1 | Not satisfied |
| CCN(CCn1cc(COCCOCCOCCOCCNC(=O)c2cccc([N+](=O)[O-])c2)nn1)c1ccc(/C=C/C2=CC(=C(C#N)C#N)c3ccccc3O2)cc1 | Satisfied |
